Reported Ki by item:
Target: Acetylcholine receptor; alpha1/beta1/delta/gamma (Homo sapiens, UniProt P02708+P07510+P11230+Q07001)
Sequence (P02708 whole entry): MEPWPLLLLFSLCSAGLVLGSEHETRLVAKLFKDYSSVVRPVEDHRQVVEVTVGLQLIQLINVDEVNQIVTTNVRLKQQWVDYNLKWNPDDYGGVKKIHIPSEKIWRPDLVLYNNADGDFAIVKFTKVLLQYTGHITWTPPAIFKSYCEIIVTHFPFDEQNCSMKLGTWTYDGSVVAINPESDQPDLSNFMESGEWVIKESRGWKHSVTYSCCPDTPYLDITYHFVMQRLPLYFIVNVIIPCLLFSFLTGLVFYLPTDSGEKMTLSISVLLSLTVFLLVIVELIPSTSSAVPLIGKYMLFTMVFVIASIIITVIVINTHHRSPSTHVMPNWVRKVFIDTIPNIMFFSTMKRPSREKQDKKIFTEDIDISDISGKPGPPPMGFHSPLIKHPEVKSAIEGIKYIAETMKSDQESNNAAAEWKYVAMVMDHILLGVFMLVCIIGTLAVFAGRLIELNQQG
Sequence (P07510 whole entry): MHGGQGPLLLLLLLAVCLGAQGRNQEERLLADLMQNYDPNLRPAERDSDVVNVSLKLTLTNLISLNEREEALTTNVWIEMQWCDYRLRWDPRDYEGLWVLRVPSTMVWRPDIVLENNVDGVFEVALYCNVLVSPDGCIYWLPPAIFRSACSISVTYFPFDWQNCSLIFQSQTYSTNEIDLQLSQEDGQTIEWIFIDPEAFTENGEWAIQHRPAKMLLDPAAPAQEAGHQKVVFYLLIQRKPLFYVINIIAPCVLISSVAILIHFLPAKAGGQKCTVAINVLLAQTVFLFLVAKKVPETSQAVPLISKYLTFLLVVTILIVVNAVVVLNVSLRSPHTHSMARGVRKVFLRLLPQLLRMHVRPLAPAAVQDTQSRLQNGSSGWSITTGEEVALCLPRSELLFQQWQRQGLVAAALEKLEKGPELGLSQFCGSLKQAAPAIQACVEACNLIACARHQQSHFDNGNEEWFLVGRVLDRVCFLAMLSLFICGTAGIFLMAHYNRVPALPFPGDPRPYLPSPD
Sequence (P11230 whole entry): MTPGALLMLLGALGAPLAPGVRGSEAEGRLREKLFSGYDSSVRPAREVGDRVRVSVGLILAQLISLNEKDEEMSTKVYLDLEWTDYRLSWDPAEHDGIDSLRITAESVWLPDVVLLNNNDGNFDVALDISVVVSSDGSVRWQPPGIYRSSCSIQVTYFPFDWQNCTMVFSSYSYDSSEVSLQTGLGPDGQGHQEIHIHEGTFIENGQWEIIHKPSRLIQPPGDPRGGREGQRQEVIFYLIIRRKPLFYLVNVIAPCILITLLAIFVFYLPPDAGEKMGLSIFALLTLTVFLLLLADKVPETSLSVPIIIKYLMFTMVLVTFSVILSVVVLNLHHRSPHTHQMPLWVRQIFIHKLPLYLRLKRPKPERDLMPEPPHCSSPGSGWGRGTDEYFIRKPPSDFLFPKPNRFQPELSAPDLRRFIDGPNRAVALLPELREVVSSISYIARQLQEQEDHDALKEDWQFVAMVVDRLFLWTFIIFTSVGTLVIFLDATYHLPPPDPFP
Sequence (Q07001 whole entry): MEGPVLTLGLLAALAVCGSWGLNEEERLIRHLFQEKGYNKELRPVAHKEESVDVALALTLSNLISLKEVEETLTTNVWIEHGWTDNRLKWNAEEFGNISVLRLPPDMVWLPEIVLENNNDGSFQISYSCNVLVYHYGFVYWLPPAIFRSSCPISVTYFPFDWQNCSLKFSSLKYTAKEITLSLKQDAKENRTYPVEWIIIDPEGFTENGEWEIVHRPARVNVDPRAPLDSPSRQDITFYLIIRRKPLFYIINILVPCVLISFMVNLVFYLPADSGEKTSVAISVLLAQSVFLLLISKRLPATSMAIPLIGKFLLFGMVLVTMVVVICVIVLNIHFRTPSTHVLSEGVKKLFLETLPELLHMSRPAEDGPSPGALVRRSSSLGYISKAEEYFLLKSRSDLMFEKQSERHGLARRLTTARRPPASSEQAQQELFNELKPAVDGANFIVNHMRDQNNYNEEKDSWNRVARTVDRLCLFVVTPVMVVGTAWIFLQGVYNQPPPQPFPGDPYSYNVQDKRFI
Experiment: Binding affinity to human muscle nAChR alpha1beta1gammadelta expressed in human TE-671 cells
API: value field is a number in µM; no unit string.

Known results for molecules:
1. c1cncc(N2CCC3(CC4CCN3C4)C2)c1 (centres undefined); 9.9
2. c1cncc(N2CCC3(C2)C2CCN3CC2)c1 (centres undefined); 0.58
3. c1cncc(N2CCC3(CC4CCN3CC4)C2)c1 (centres undefined); 11

From here, focus on the item given below.
Prompt: Specify measured Ki for c1cncc(N2CCC3(CCCN3)C2)c1 (centres undefined) [TC-2216] .
Completion: 5.7

###

Target: Neuronal acetylcholine receptor subunit alpha-7 (Homo sapiens)
Sequence (P36544 whole entry): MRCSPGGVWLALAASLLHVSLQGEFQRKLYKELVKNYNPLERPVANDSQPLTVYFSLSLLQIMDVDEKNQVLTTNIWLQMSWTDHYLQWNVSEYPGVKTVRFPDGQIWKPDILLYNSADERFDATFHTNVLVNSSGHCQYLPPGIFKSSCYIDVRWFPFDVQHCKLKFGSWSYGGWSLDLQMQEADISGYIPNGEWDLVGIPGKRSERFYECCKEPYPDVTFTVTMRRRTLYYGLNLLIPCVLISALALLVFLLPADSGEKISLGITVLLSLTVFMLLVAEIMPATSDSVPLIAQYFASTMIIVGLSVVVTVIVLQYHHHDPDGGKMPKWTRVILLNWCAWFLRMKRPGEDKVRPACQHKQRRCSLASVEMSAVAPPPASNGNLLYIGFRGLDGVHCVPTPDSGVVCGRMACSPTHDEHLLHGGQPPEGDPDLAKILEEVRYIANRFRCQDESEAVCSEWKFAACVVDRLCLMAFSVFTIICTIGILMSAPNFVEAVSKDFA
Assay: Binding affinity to human nAChR alpha7 expressed in HEK cells coexpressing RIC3
readout name: Ki (µM)
API: value field is a number in µM; no unit string.

Known results for molecules:
1. c1cncc(N2CCC3(C2)C2CCN3CC2)c1 (centres undefined); 7.6
2. c1cncc(N2CCC3(CCCN3)C2)c1 (centres undefined) [TC-2216]; 6.9
3. c1cncc(N2CCC3(CC4CCN3C4)C2)c1 (centres undefined); 7.9

From here, focus on the item given below.
Prompt: Specify measured Ki for c1cncc(N2CCC3(CC4CCN3CC4)C2)c1 (centres undefined) .
Completion: 8

###

Target: Neuronal acetylcholine receptor; alpha4/beta2 (Homo sapiens, UniProt P17787+P43681)
Test: Displacement of [3H]-epibatidine from human nAChR alpha4beta2 expressed in human SH-EP1 cells
readout name: pKi
Here pKi is given on a logarithmic scale as minus log10 of the concentration in mol/L.

Known results for molecules:
1. c1cncc(N2CCC3(CC4CCN3CC4)C2)c1 (centres undefined); 7.49
2. c1cncc(N2CCC3(CCCN3)C2)c1 (centres undefined) [TC-2216]; 7.54

Prompt: Specify measured pKi for c1cncc(N2CCC3(CC4CCN3C4)C2)c1 (centres undefined) .
Completion: 7.54

Prompt: Specify measured pKi for c1cncc(N2CCC3(C2)C2CCN3CC2)c1 (centres undefined) .
Completion: 8.00

###

Molecular target: Neuronal acetylcholine receptor; alpha4/beta2 (Rattus norvegicus, UniProt P09483+P12390)
Sequence (P09483 whole entry): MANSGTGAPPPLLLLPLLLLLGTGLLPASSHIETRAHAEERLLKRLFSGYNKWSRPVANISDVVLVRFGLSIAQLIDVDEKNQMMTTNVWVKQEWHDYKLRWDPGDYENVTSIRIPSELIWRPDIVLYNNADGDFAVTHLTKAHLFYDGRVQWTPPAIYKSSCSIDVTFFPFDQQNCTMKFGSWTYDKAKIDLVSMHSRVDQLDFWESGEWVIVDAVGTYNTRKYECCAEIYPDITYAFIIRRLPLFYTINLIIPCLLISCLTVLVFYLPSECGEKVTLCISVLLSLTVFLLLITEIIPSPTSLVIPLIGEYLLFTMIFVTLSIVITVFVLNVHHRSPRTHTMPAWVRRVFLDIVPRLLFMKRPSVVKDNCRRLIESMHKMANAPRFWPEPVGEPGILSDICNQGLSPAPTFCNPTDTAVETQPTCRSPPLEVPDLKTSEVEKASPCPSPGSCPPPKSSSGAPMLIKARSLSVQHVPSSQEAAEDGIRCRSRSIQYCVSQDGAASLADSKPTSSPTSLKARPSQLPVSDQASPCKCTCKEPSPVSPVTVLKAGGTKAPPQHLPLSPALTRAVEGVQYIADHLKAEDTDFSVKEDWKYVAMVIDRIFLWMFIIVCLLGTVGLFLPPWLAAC
Sequence (P12390 whole entry): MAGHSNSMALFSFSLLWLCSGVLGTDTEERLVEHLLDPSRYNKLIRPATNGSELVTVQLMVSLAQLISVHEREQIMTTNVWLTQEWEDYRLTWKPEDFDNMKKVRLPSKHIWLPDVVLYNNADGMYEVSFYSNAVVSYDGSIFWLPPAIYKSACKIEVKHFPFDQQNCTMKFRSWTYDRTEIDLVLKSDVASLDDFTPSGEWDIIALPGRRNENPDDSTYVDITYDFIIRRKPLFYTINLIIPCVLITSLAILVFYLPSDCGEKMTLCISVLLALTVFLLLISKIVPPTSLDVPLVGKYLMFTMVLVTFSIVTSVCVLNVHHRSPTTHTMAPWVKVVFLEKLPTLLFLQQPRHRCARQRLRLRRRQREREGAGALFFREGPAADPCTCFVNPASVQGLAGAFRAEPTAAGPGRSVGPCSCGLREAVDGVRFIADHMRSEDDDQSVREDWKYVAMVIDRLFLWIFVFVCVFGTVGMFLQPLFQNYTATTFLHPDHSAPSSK
Test: Displacement of [3H]-nicotine from rat nAChR alpha4beta2 in rat cortex
Reported pKi by item:
Here pKi is given on a logarithmic scale as minus log10 of the concentration in mol/L.

Known results for molecules:
1) c1cncc(N2CCC3(CC4CCN3CC4)C2)c1 (centres undefined); 8.24
2) c1cncc(N2CCC3(CCCN3)C2)c1 (centres undefined); 7.12
3) c1cncc(N2CCC3(CC4CCN3C4)C2)c1 (centres undefined); 7.40

From here, focus on the item given below.
Prompt: Specify measured pKi for c1cncc(N2CCC3(C2)C2CCN3CC2)c1 (centres undefined) .
Completion: 7.47

###

Molecular target: Neuronal acetylcholine receptor; alpha3/beta4 (Homo sapiens, UniProt P30926+P32297)
Sequence (P30926 whole entry): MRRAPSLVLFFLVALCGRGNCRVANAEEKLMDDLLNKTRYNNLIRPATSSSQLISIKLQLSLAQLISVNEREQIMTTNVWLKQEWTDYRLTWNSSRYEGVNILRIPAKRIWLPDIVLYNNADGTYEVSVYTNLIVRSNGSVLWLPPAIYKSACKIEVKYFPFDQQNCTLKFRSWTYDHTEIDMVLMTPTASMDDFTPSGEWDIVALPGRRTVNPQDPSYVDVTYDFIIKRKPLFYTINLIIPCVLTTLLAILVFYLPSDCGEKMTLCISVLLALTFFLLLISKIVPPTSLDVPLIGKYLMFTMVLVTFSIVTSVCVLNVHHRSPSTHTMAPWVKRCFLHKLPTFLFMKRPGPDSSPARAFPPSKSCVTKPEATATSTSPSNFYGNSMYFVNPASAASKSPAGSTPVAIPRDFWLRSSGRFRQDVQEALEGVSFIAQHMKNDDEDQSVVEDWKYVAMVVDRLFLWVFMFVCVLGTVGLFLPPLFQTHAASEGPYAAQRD
Sequence (P32297 whole entry): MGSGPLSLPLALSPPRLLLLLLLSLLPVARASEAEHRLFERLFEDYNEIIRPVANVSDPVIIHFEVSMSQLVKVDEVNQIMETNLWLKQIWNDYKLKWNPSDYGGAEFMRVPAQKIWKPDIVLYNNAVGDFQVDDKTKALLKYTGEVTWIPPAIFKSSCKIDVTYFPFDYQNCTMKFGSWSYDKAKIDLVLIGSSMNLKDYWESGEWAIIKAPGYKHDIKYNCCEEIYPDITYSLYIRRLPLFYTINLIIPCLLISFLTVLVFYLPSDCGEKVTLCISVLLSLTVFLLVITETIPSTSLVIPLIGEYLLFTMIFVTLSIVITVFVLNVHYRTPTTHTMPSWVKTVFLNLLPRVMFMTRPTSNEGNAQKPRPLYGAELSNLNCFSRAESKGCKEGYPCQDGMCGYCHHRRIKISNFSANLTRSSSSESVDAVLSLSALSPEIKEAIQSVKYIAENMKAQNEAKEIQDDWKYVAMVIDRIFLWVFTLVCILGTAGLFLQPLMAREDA
Assay: Agonist activity at human ganglionic nAChR alpha3beta4 expressed in human SHSY-5Y cells assessed as calcium flux by fluorescence analysis relative to nicotine
Settings: SH-SY5Y
readout name: Emax (%)
API: value field is a number in %; no unit string.

Known results for molecules:
1. c1cncc(N2CCC3(CCCN3)C2)c1 (centres undefined); 9.6
2. c1cncc(N2CCC3(C2)C2CCN3CC2)c1 (centres undefined); 29
3. c1cncc(N2CCC3(CC4CCN3CC4)C2)c1 (centres undefined); 4.2

Prompt: Specify measured Emax for c1cncc(N2CCC3(CC4CCN3C4)C2)c1 (centres undefined) .
Completion: 3.1

###

Reported EC50 by item:
Target: Neuronal acetylcholine receptor; alpha3/beta4 (Homo sapiens, UniProt P30926+P32297)
Experiment: Agonist activity at human ganglionic nAChR alpha3beta4 expressed in human SHSY-5Y cells assessed as calcium flux by fluorescence analysis
API: value field is a number in µM; no unit string.

Known results for compounds:
1. c1cncc(N2CCC3(CCCN3)C2)c1 (centres undefined); 55
2. c1cncc(N2CCC3(CC4CCN3C4)C2)c1 (centres undefined); 31
3. c1cncc(N2CCC3(CC4CCN3CC4)C2)c1 (centres undefined); 6.9

From here, focus on the item given below.
Prompt: Specify measured EC50 for c1cncc(N2CCC3(C2)C2CCN3CC2)c1 (centres undefined) .
Completion: 2.6

###

Biological target: Neuronal acetylcholine receptor; alpha3/beta4 (Homo sapiens, UniProt P30926+P32297)
Assay: Binding affinity to human ganglionic nAChR alpha3beta4 expressed in human SHSY-5Y cells
Reported pKi by item:
Here pKi is given on a logarithmic scale as minus log10 of the concentration in mol/L.

Prompt: Specify measured pKi for c1cncc(N2CCC3(CC4CCN3CC4)C2)c1 (centres undefined) .
Completion: 5.96

Prompt: Specify measured pKi for c1cncc(N2CCC3(C2)C2CCN3CC2)c1 (centres undefined) .
Completion: 6.25

Prompt: Specify measured pKi for c1cncc(N2CCC3(CCCN3)C2)c1 (centres undefined) .
Completion: 5.92

Prompt: Specify measured pKi for c1cncc(N2CCC3(CC4CCN3C4)C2)c1 (centres undefined) .
Completion: 5.62
